Recorded pKd by entry
subject of test: FRMPD2_1, Q68DX3
Sequence (Q68DX3 770-861): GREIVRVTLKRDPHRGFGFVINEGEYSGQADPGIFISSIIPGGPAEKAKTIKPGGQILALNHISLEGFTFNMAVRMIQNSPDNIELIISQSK
test: holdup assay
Set-up: key: below the threshold = too weak to quantify, mostly under pKd 3.1 to 4
measurement parameters: plain residues with an end cap or a label only (N-terminal biotin on a linker: ttds)
# output: bare number, no unit

Recorded pKd, per entry:
binder	reading
RHTTSTETAV [HPV30-E6, P36809]	4.14
SKPTRRETEV [HPV35-E6, P27228]	3.49
SSLQSLETSV [ATP2B4, P23634]	4.17
VDFPPKESSL [ACVR2A, P27037]	3.82
EMDRRPATVV [PLCB4, Q15147]	3.97

Query: Give the measured pKd for RLQRRRETQV [HPV18-E6, P06463]
Reply: 4.1

Query: Give the measured pKd for SGSRPSATVV [HPV73-E6, Q82005]
Reply: 3.51

Where do these numbers come from? They come from paper PMC9482650.
